Target: Luciferin 4-monooxygenase (Photinus pyralis) (UniProt P08659)
Sequence (P08659 whole entry, looked up): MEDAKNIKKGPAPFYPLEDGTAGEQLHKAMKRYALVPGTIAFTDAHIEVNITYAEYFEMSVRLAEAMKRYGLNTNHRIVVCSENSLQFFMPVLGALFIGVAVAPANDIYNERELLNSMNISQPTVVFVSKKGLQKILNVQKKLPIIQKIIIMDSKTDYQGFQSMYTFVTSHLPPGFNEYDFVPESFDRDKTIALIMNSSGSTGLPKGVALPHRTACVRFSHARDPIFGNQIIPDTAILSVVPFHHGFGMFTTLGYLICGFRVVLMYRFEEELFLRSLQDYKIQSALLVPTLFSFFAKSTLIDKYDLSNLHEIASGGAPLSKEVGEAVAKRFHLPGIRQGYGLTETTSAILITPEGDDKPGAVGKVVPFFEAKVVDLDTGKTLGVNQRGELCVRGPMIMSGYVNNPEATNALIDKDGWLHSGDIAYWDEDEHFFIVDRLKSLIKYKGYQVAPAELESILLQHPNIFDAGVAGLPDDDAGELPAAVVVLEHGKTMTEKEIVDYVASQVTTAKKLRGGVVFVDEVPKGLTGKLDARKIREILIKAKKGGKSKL
Assay: Firefly luciferase counterscreen qHTS: Assay Interference Panel against the NCATS CANVASS Library (AID 1347363)
Details: purified firefly luciferase, luminescence inhibition, 5 min; series mostly up to 57.5 µM
Calls of active or inactive are those of the source. Calls come from the whole dose curve; as a rule, active = well fitted curve in the direction sought with a large enough effect; inconclusive = small, poorly fitted or top-dose-only effect, or another doubt; inactive = no such curve, though single readings can be large or run the other way. Peptide text beside a SMILES is read from it. * marks the point of attachment. Octanoyl = CCCCCCCC(=O)*
Outcomes: y = active, n = inactive

# compound, labelClass
measured = [
    ("C=C1C(=O)O[C@H]2C[C@H](C)[C@@H]3CC(=O)C(C)=C3[C@H](O)[C@H]12", "n"),
    ("C[C@]12CC[C@]3(C1)[C@H](CC2=O)CC(OC(=O)c1ccccc1)[C@H]1[C@@](CO)(C(=O)O)CCC[C@@]13C (stereo partly specified)", "n"),
    ("COc1ccc(/C=C2\\COc3cc(O)ccc3C2=O)cc1", "y"),
    ("COC1C(O)C(OC(N)=O)C(Oc2ccc3c(O)c(NC(=O)c4ccc(O)c(CC=C(C)C)c4)c(=O)oc3c2C)OC1(C)C (stereo unspecified)", "n"),
    ("C=CC(C)(C)C(=O)[C@@H](C)[C@@H]1CC[C@](C)(C=C)O1", "n"),
    ("O=C(O)[C@@]12CO[C@@]3(O)C4CCN(CC[C@H]31)[C@H]4c1c2[nH]c2ccccc12", "n"),
    ("O=Cc1ccc2n1C[C@@]1(C[C@H](O)[C@H](O)CO1)OC2", "n"),
    ("C[C@@H]1C(=O)[C@]23CC[C@H]1C[C@]21O[C@H]2C(C)(C)C=CC(=O)[C@]23COC1=O", "n"),
    ("C=C(C)CC[C@H](Cc1c(O)cc(O)c2c1O[C@H](c1ccc(O)cc1O)CC2=O)C(=C)C", "n"),
    ("CCC[C@@H](C)/C=C(\\C)[C@H](O)[C@H](C)/C=C/CC[C@@H](O)[C@H](C)[C@H](O)[C@H](C)[C@H](O)[C@H](C)[C@H]1O[C@H]([C@H](C)C(=O)O)CC[C@@H]1C", "n"),
    ("C=C1C[C@@]23C=CC(=O)[C@@](C)(CCC(=O)Nc4c(O)ccc(C(=O)O)c4O)C2C[C@@H]1C(O)C3 (stereo partly specified)", "n"),
    ("COc1cc(O)c2c3c(c(O)cc(C)c13)C(=O)OC2", "n"),
    ("C=C(NC(=O)c1csc(-c2nc3c(cc2O)-c2nc(cs2)C(=O)NC(C(C)O)C(=O)N/C(=C(\\C)O)c2nc(cs2)C(=O)NC2c4nc(cs4)C(=O)NC(COC(=O)c4c5c6c(cccc6n4O)COC(=O)[C@@H](OC4C[C@](C)(O)[C@H](N(C)C)[C@H](C)O4)C2OC5)c2nc-3cs2)n1)C(N)=O (stereo partly specified)", "n"),
    ("CCCCCCCC(=O)N[C@@H](CC(C)C)C(=O)N[C@H](C=O)CCC(=O)O (Octanoyl-Leu-Glu-aldehyde)", "n"),
    ("O=Cc1ccc2n1C[C@@]1(C[C@H](O)[C@@H](CO)O1)OC2", "n"),
    ("CN1C(=O)[C@]23SS[C@@]1(C)C(=O)N2[C@H]1Nc2ccccc2[C@]1(c1c[nH]c2ccccc12)[C@@H]3O", "n"),
]
